Molecular target: ENL YEATS domain (AviSUMO-ENL YEATS) (Homo sapiens, UniProt Q03111)
Construct: encoding ENL YEATS (aa 1−148) was cloned in pET28a-; made in house; host or cells: E. coli BL21(DE3pLysS), co-expressed with BirA (pBirAcm)
Sequence (Q03111 1-148): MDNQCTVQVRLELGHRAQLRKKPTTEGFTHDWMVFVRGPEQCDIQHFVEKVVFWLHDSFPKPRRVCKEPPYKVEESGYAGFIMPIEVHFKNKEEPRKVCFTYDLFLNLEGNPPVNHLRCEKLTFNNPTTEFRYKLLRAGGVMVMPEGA
Assay: Phage panning of BuK-containing 7-mer library against AviSUMO-ENL YEATS with Illumina NGS abundance
Settings: sheet ENLR3: round 3 of panning against ENL YEATS; TAG = amber codon (BuK); 7-mer library positions V1-V7
measured endpoint: n (number of NGS reads of the unique amino acid sequence)
Respond with the number and no other words.

**Q:** n (number of NGS reads of the unique amino acid sequence) lookup needed for `QCGPRYD` , thanks.
**A:** 11

Further cases:
**Q:** n (number of NGS reads of the unique amino acid sequence) lookup needed for `CYPTAGKCC` , thanks.
**A:** 1

**Q:** n (number of NGS reads of the unique amino acid sequence) lookup needed for `QRGPRTAGD` , thanks.
**A:** 2

**Q:** n (number of NGS reads of the unique amino acid sequence) lookup needed for `LWIFTPTAG` , thanks.
**A:** 4

**Q:** n (number of NGS reads of the unique amino acid sequence) lookup needed for `CLPWTAGSS` , thanks.
**A:** 7

----------
Biological target: ENL YEATS domain (AviSUMO-ENL YEATS) (Homo sapiens)
Construct: encoding ENL YEATS (aa 1−148) was cloned in pET28a-; made in house; host or cells: E. coli BL21(DE3pLysS), co-expressed with BirA (pBirAcm)
Sequence (Q03111 1-148): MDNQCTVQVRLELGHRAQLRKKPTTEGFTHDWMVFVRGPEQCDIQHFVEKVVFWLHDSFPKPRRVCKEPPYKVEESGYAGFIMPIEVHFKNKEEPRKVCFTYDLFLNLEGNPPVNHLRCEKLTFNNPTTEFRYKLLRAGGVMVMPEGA
Assay: Phage panning of BuK-containing 7-mer library against AviSUMO-ENL YEATS with Illumina NGS abundance
Details: sheet ENLR3: round 3 of panning against ENL YEATS; TAG = amber codon (BuK); 7-mer library positions V1-V7
measured endpoint: n (number of NGS reads of the unique amino acid sequence)
Respond with the number and no other words.

**Q:** n (number of NGS reads of the unique amino acid sequence) lookup needed for `YHVYCYTAG` , thanks.
**A:** 2

**Q:** n (number of NGS reads of the unique amino acid sequence) lookup needed for `YDVCCYTAG` , thanks.
**A:** 6

**Q:** n (number of NGS reads of the unique amino acid sequence) lookup needed for `CCWTAGGGN` , thanks.
**A:** 2

**Q:** n (number of NGS reads of the unique amino acid sequence) lookup needed for `HPIYCYTAG` , thanks.
**A:** 1

**Q:** n (number of NGS reads of the unique amino acid sequence) lookup needed for `QCGLRTAGD` , thanks.
**A:** 4

**Q:** n (number of NGS reads of the unique amino acid sequence) lookup needed for `QYGPRTAGD` , thanks.
**A:** 2

**Q:** n (number of NGS reads of the unique amino acid sequence) lookup needed for `YDVYCHTAG` , thanks.
**A:** 13

**Q:** n (number of NGS reads of the unique amino acid sequence) lookup needed for `FLTRCML` , thanks.
**A:** 1

**Q:** n (number of NGS reads of the unique amino acid sequence) lookup needed for `HAIYFYTAG` , thanks.
**A:** 1

**Q:** n (number of NGS reads of the unique amino acid sequence) lookup needed for `QCGPQTAGD` , thanks.
**A:** 2

**Q:** n (number of NGS reads of the unique amino acid sequence) lookup needed for `CHNWICTAG` , thanks.
**A:** 1

----------
Target: ENL YEATS domain (AviSUMO-ENL YEATS) (Homo sapiens, UniProt Q03111)
Construct: encoding ENL YEATS (aa 1−148) was cloned in pET28a-; made in house; host or cells: E. coli BL21(DE3pLysS), co-expressed with BirA (pBirAcm)
Sequence (Q03111 1-148): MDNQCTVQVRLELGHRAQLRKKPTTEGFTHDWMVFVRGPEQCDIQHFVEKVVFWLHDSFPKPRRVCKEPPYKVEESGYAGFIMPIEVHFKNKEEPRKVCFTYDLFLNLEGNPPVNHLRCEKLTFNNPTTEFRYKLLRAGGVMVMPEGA
Experiment: Phage panning of BuK-containing 7-mer library against AviSUMO-ENL YEATS with Illumina NGS abundance
Details: sheet ENLR3: round 3 of panning against ENL YEATS; TAG = amber codon (BuK); 7-mer library positions V1-V7
measured endpoint: n (number of NGS reads of the unique amino acid sequence)
Respond with the number and no other words.

**Q:** n (number of NGS reads of the unique amino acid sequence) lookup needed for `HYVLFTAGG` , thanks.
**A:** 612

Further cases:
**Q:** n (number of NGS reads of the unique amino acid sequence) lookup needed for `LAYCTAGHN` , thanks.
**A:** 2

**Q:** n (number of NGS reads of the unique amino acid sequence) lookup needed for `WWIIETAGE` , thanks.
**A:** 10

**Q:** n (number of NGS reads of the unique amino acid sequence) lookup needed for `WWIIEYG` , thanks.
**A:** 29

**Q:** n (number of NGS reads of the unique amino acid sequence) lookup needed for `WTAGIIETAGG` , thanks.
**A:** 4

**Q:** n (number of NGS reads of the unique amino acid sequence) lookup needed for `TAGTVTFWY` , thanks.
**A:** 3

**Q:** n (number of NGS reads of the unique amino acid sequence) lookup needed for `FEISEWTAG` , thanks.
**A:** 2

**Q:** n (number of NGS reads of the unique amino acid sequence) lookup needed for `HYFLFTAGG` , thanks.
**A:** 1

**Q:** n (number of NGS reads of the unique amino acid sequence) lookup needed for `WTVYCYTAG` , thanks.
**A:** 3

**Q:** n (number of NGS reads of the unique amino acid sequence) lookup needed for `WCIIETAGG` , thanks.
**A:** 19

**Q:** n (number of NGS reads of the unique amino acid sequence) lookup needed for `SWILWTAGG` , thanks.
**A:** 8

**Q:** n (number of NGS reads of the unique amino acid sequence) lookup needed for `SQCTAGECA` , thanks.
**A:** 2

**Q:** n (number of NGS reads of the unique amino acid sequence) lookup needed for `HLTLFYG` , thanks.
**A:** 3

**Q:** n (number of NGS reads of the unique amino acid sequence) lookup needed for `HSWFTAGDG` , thanks.
**A:** 1

**Q:** n (number of NGS reads of the unique amino acid sequence) lookup needed for `YDVYCTAGTAG` , thanks.
**A:** 3

**Q:** n (number of NGS reads of the unique amino acid sequence) lookup needed for `QFGPRTAGD` , thanks.
**A:** 6

----------
Target: ENL YEATS domain (AviSUMO-ENL YEATS) (Homo sapiens, UniProt Q03111)
Construct: encoding ENL YEATS (aa 1−148) was cloned in pET28a-; made in house; host or cells: E. coli BL21(DE3pLysS), co-expressed with BirA (pBirAcm)
Sequence (Q03111 1-148): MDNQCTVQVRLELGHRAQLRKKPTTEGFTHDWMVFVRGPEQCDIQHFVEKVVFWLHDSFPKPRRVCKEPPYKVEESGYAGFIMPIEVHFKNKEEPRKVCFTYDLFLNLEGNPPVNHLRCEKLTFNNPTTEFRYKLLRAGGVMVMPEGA
Test: Phage panning of BuK-containing 7-mer library against AviSUMO-ENL YEATS with Illumina NGS abundance
Conditions: sheet ENLR3: round 3 of panning against ENL YEATS; TAG = amber codon (BuK); 7-mer library positions V1-V7
measured endpoint: n (number of NGS reads of the unique amino acid sequence)
Respond with the number and no other words.

Solved entries (count: 2):
**Q:** Request - read-out n (number of NGS reads of the unique amino acid sequence) | tested on ENL YEATS domain (AviSUMO-ENL YEATS) (Homo sapiens, UniProt Q03111) | sequence `ILIYTAGGD`
**A:** 4

**Q:** Request - read-out n (number of NGS reads of the unique amino acid sequence) | tested on ENL YEATS domain (AviSUMO-ENL YEATS) (Homo sapiens, UniProt Q03111) | sequence `YDVHCYTAG`
**A:** 5

Further cases:
**Q:** Request - read-out n (number of NGS reads of the unique amino acid sequence) | tested on ENL YEATS domain (AviSUMO-ENL YEATS) (Homo sapiens, UniProt Q03111) | sequence `WNCLYTAGD`
**A:** 4
